Several reports have described pIC50 for ROCK2 (Homo sapiens); a selection of those results is presented here.
Please express pIC50 as -log10 of the molar concentration.

Response field pIC50 (ROCK2 (Homo sapiens)) for item COc1cc(N2CCC3(CCN(C(=O)c4ccncc4)CC3)C2=O)ccc1-c1cn[nH]c1 : 6.36

The compound Cc1cc(C(=O)NCc2cccc(C(=O)NCC3CC3)c2)ccc1-c1cn[nH]c1 on ROCK2 (Homo sapiens): pIC50 was 9.30

ROCK2 (Homo sapiens) pIC50 of NCC(C(=O)Nc1cc2ccncc2s1)c1ccc(CCCCO[N+](=O)[O-])cc1 (centres unmarked) is 7.71

Assay ROCK2 (Homo sapiens), sample O=C(NCC1CCOCC1)c1cccc([C@@H](CO)NC(=O)c2ccc(-c3ccncc3)cc2)c1 , pIC50 read: 9.24

Result for O=C(NC1CCCC1)c1cccc([C@@H](CO)NC(=O)c2cccc(-c3cn[nH]c3)c2)c1 , tested on ROCK2 (Homo sapiens), pIC50: 7.70

====

From various publications: IC50 for ROCK2 (Homo sapiens, UniProt O75116).

The value of IC50 recorded for [H][C@]1(c2n[nH]c(=O)c3ccccc32)C[C@]2(C[C@@H](NC(=O)c3cc4cccnc4[nH]3)C2)C1 (stereo partly shown) when tested on ROCK2 (Homo sapiens, UniProt O75116) reads 0.0051 to 0.015 µM

Value (IC50, ROCK2 (Homo sapiens, UniProt O75116)) for record O=C(NC1CC2(C1)CC(c1n[nH]c(=O)c3ccccc13)C2)c1cnn2cc(-n3ccccc3=O)ccc12 (stereo not shown) = 0.0051 to 0.015 µM

Summary line: COc1cc(F)cc(CNC(=O)N2CCCc3cc(-c4cn[nH]c4)ccc32)c1 , ROCK2 (Homo sapiens, UniProt O75116), reported IC50 = ≤ 0.05 µM

Entry O=c1n(Cc2ccccc2)cnn1-c1ccc(-c2n[nH]c(=O)n3cccc23)cc1 , tested on ROCK2 (Homo sapiens, UniProt O75116), has a reported IC50 of 0.5 to 2 µM

Summary line: COc1cc(-n2cnn(Cc3cccc(F)c3)c2=O)ccc1-c1cn[nH]c1 , ROCK2 (Homo sapiens, UniProt O75116), reported IC50 = 0.05 to 0.25 µM

Sample O=C(NC(CO)c1ccc(F)c(F)c1)c1cccc(-c2ccc3[nH]ncc3c2)c1 (stereo not shown) , system: ROCK2 (Homo sapiens, UniProt O75116). Its IC50 is 0.029 µM

# COc1cccc(Cn2c(C)nn(-c3ccc(-c4c[nH]c(=O)c5ccsc45)cc3)c2=O)c1 with ROCK2 (Homo sapiens, UniProt O75116): IC50 is 0.5 to 2 µM

Item COc1cccc(CN2CCN(c3ccc(-c4ccnc(F)c4)cc3)C2=O)c1 ; assay system ROCK2 (Homo sapiens, UniProt O75116); IC50 reported as 0.0201 to 0.2 µM

Reported IC50 (ROCK2 (Homo sapiens, UniProt O75116)) for entry CC(C)n1cc(-c2ccc3c(c2)CN(C(=O)NC2CC4(C2)CC(c2n[nH]c(=O)c5ccccc25)C4)C3)c(C(F)(F)F)n1 (stereo not shown) is 0.0051 to 0.015 µM

For the compound CN(C)Cc1cccc(CNC(=O)c2cccc([C@@H](CO)NC(=O)c3ccc(-c4ccncc4)cc3)c2)c1 , the measured IC50 on ROCK2 (Homo sapiens, UniProt O75116) was 0.00038 µM

Log: ROCK2 (Homo sapiens, UniProt O75116), compound COc1cc(N2CCC3(CCN(C(=O)c4c(C)cc(C(N)=O)cc4C)CC3)C2=O)ccc1-c1cn[nH]c1 , IC50 = 0.13 µM

Case CC(c1ccccc1)N1CC(=O)N(c2ccc(-c3cn[nH]c3)cc2)C1=O (stereo not shown) , ROCK2 (Homo sapiens, UniProt O75116), IC50 recorded as 0.0201 to 0.2 µM

Test item Cn1c(C(=O)N2CC(C#N)C2)cc2c1CN(c1nccc(Nc3ccc(-c4cn[nH]c4)cc3)n1)CC2 ; ROCK2 (Homo sapiens, UniProt O75116); reported IC50 was ≤ 0.05 µM

The compound COCCOC(=O)c1ccc(C(=O)Nc2cccc(CN3CCC(Nc4cccc5cnccc45)C3)c2)cc1 (stereo not shown) , tested on ROCK2 (Homo sapiens, UniProt O75116), showed IC50 of < 0.1 µM

IC50 value, target or system ROCK2 (Homo sapiens, UniProt O75116), for O=C1N(c2ccc(-c3cn[nH]c3)cc2)CC2(CCOCC2)N1Cc1cccc(OCC2CC2)c1 : 0.003 to 0.03 µM

Given the compound COc1cc(F)cc(CNC(=O)N2CCc3cc(-c4c[nH]nn4)ccc32)c1 and test system ROCK2 (Homo sapiens, UniProt O75116), the measured IC50 is 0.05 to 0.5 µM
